# System: OVCAR-3
# assay summary: NCI tumour cell line growth inhibition, 48 h
Calls of active or inactive are those of the source. No stated cut-off is given here; in the data, active = GI50 up to about 1.1 µM and inactive = higher.
Parameter: GI50. Scope: all listed entries.

Please review the following examples before continuing.
molecule | GI50
COc1ccc2oc(=O)c(-c3cc4c(c(C)n3)c(=O)oc3ccc(OC)cc34)cc2c1 | > 100 µM (inactive)
O=C(c1ccccc1)C1C[C@H]2CO[C@H](c3ccccc3)N2C1=O (some centres undefined) | > 100 µM (inactive)
COc1ccccc1CNCCCCCNCCCCCCCCCCNCCCCCNCc1ccccc1OC | 47 µM (inactive)
CCCCCCCCCCCCC(O)C1CCC(C(O)CCCCCCC(O)CCCCCCCC2=CC(C)OC2=O)O1 (centres undefined) | 20.8 µM (inactive)
C=C1CCC23CC(CC[C@@H]2[C@@]12C[C@@H](c1ccoc1)OC2=O)OC3=O (some centres undefined) | > 100 µM (inactive)

INPUT: Give its GI50 value. Item: CCOC(=O)NN1C(=O)C(=P(c2ccccc2)(c2ccccc2)c2ccccc2)C(C(=O)OCC)=C1C
OUTPUT: > 100 µM (inactive)

INPUT: Which value of GI50 has been reported for COC(=O)C1C(OC(=O)c2ccccc2)CC2CCC1N2C(N)=O (centres undefined) in the records?
OUTPUT: > 100 µM (inactive)

INPUT: Query (molecule): COc1ccc2nc3cc(Cl)ccc3c(NCCC(=O)OCC(O)C(O)C(O[C@H](C)C(=O)NC(C)C(=O)NC(CCC(N)=O)C(=O)OCc3ccccc3)C(C=O)NC(C)=O)c2c1 (some centres undefined) ; field requested: GI50
OUTPUT: 19.2 µM (inactive)

INPUT: Look up GI50: CCCCCCCCOC(CO)CO
OUTPUT: > 100 µM (inactive)

====

Listing of entries alongside the reported GI50.
# System: SN12C
# assay summary: NCI tumour cell line growth inhibition, 48 h
Activity calls are given as the source filed them. No stated cut-off is given here; in the data, active = GI50 up to about 1.1 µM and inactive = higher.

These recorded examples may help you get a feel for the data.
compound | GI50
COn1cc(CO)c2ccccc21 | > 84.7 µM (inactive)
COC(=O)/C(C#N)=C1\NN=NN1CCCc1ccccc1 | > 100 µM (inactive)
O=C(Cc1ccccc1)Oc1ccc2c(-c3ccccc3)c(C(=O)Nc3ccc(Cl)cc3)c(=O)oc2c1 | > 100 µM (inactive)
CC(C)(C)NC(=O)CCC1C(C(=O)NC(C)(C)C)C2(Cl)C(Cl)=C(Cl)C1(Cl)C2(Cl)Cl (centres undefined) | > 100 µM (inactive)
FC1(F)[Se]C2C3CCC(C3)C2C1(F)F (centres undefined) | > 100 µM (inactive)

INPUT: # value lookup — system SN12C, readout GI50, item COCN1C(=O)[C@@H]2CCCN2C(=O)c2cc(OC)c(Cc3ccccc3)cc21
OUTPUT: > 100 µM (inactive)

INPUT: What value of GI50 on SN12C does N/C(=N\Nc1nc2cc([N+](=O)[O-])ccc2o1)c1ccccn1 have?
OUTPUT: 0.189 µM (active)

INPUT: Quick check: GI50 on SN12C, item N#Cc1nc(CCCN2C(=O)c3ccccc3C2=O)oc1N ?
OUTPUT: > 100 µM (inactive)

====

The entries below come with measured GI50 values attached.
# Test system: TK-10
# assay summary: NCI tumour cell line growth inhibition, 48 h
Active and inactive are the calls of the source. Cut-off read from the data, not from the text of the source: active = GI50 up to about 1.1 µM and inactive = higher. Non-standard residues stand in square brackets, D forms with d. Residues, ends and D or L forms follow the SMILES beside them.

Solved cases (8 shown):
compound | GI50
COc1cccc2cc(C(=O)NC34CC5CC(CC(C5)C3)C4)c(=N)oc12 | 64 µM (inactive)
CCC12CCCNC1c1c(n(C)c3ccccc13)C(C(=O)OC)C2 (centres undefined) | 116 µM (inactive)
COc1ccccc1NC(=O)C(=O)C(c1cnc2ccc([N+](=O)[O-])cc2n1)[N+](=O)[O-] (centres undefined) | > 100 µM (inactive)
CC(C)=CCNc1ncnc2c1ncn2CCC#N | > 100 µM (inactive)
COC(=O)C1=C(O)C(O)=C(C(=O)OC)C1 | > 100 µM (inactive)
CN1C(=O)C(O)C[C@@H]1c1ccc(F)cc1 (some centres undefined) | > 100 µM (inactive)
O=[N+]([O-])c1cc(CCl)ccc1CCl | 2.96 µM (inactive)
NCCSc1nc2ccccc2s1 | 24.9 µM (inactive)

Please find the next compound below.
INPUT: # value lookup — system TK-10, readout GI50, item CSCC[C@H](NC(=O)[C@@H](N)CC(N)=O)C(=O)N[C@@H](Cc1c[nH]c2ccccc12)C(=O)N[C@@H](CCC(N)=O)C(=O)N[C@@H](CCC(=O)O)C(=O)N[C@H](C(=O)NCC(=O)N[C@@H](CCCCN)C(=O)N[C@H](C)C(=O)O)C(C)C (H-NMWQEVGK[dA]-OH)
OUTPUT: > 100 µM (inactive)

====

Reported GI50 values follow for various molecules
# System: OVCAR-3
# assay summary: NCI tumour cell line growth inhibition, 48 h
Calls of active or inactive are those of the source. Cut-off read from the data, not from the text of the source: active = GI50 up to about 1.1 µM and inactive = higher.

molecule | metric name | measured result
COC(=O)c1cc2/c(=N/O)c3ccccc3sc2o1 | GI50 | > 100 µM (inactive)
COc1ccc(-c2cc(C(=O)Nc3cccc(C(F)(F)F)c3)nc(S)n2)cc1 | GI50 | > 100 µM (inactive)
C#C[C@]1(O)CC[C@H]2[C@@H]3CCC4=C/C(=N/NC(=O)c5cccc6cc7ccccc7nc56)CC[C@@H]4[C@H]3CC[C@@]21CC | GI50 | 75.5 µM (inactive)
CCOC(=O)C(NC(=O)CC)(Nc1ccc(S(=O)(=O)Nc2onc(C)c2C)cc1)C(F)(F)F (stereo not given) | GI50 | > 100 µM (inactive)

Here's the next entry for you.
INPUT: Need GI50, item O=C(CCc1cccc(O)c1)NCCc1cccc(OCc2ccccc2)c1
OUTPUT: 6.55 µM (inactive)

====

Items are presented alongside their recorded GI50.
# Test system: TK-10
# assay summary: NCI tumour cell line growth inhibition, 48 h
Activity calls are given as the source filed them. Rule as the data show it: active = GI50 up to about 1.1 µM and inactive = higher. Starred links: 1 amine or outer side, 2 acyl side, 3 side chain; linkers in the order of their positions; H or OH if unused. Non-standard residues stand in square brackets, D forms with d. Residues, ends and D or L forms follow the SMILES beside them. ξ: configuration not given here. X24 = O=C(C(CC(O)CO)O[*:1])[*:2]; Ile(3ξ) = CCC(C)[C@H](N)C(=O)O; NMeV = CN[C@H](C(=O)O)C(C)C; NMeA = CN[C@@H](C)C(=O)O; βAla = NCCC(=O)O

Recorded GI50, per entry:
compound | GI50
O=c1c2ccccc2nc(-c2ccccc2)n1/N=C/c1ccccc1[N+](=O)[O-] | 28.3 µM (inactive)
CCOC(=O)C1=C(Nc2ccc(Cl)cc2Cl)OC/C1=N\NS(=O)(=O)c1ccc(C)cc1 | > 100 µM (inactive)
O=C(O[C@H]1[C@@H](O)[C@H](n2cnc3c(Cl)ncnc32)O[C@@H]1COC(c1ccccc1)(c1ccccc1)c1ccccc1)c1ccccc1 | 45.2 µM (inactive)
Cc1cc(-c2cscn2)c(O)c([N+](=O)[O-])c1 | 52.7 µM (inactive)
CC1(c2cc3c(cc2Br)OCO3)SCCCS1 | 33.4 µM (inactive)
CCC(C)[C@@H]1NC(=O)[C@@H]2CCCN2C(=O)C(CC(O)CO)OC(=O)CCNC(=O)[C@H](C)N(C)C(=O)[C@H](C(C)C)N(C)C1=O (some centres not stated) (cyclo([Ile(3ξ)][NMeV][NMeA][βAla][X24]P)) | > 100 µM (inactive)

INPUT: So what's the measured GI50 for this one? COC(=O)c1c2c(cc3c1CCC3)CCC2
OUTPUT: 57.4 µM (inactive)

INPUT: Could you tell me which GI50 is on file for CS(=O)(=O)c1nc(-c2cc3c(c(S(C)(=O)=O)n2)CCCC3)cc2c1CCCCC2 ?
OUTPUT: > 100 µM (inactive)

INPUT: Which GI50 value belongs to CCOC(=O)N1CCC(=C2c3ccc(Cl)cc3CCc3cccnc32)CC1 ?
OUTPUT: 13.2 µM (inactive)

INPUT: What does the data say about its GI50? Entry: COc1ccc(NC(=O)CC(=O)N2N=C(C)C(/N=N/c3ccc(C(=O)O)cc3)C2=O)cc1 (configuration not stated)
OUTPUT: > 100 µM (inactive)

INPUT: What value of GI50 has been reported for the following compound? Cc1cccc(C)c1NC(=O)C(=O)CC(=O)/C=C/c1ccccc1
OUTPUT: > 100 µM (inactive)

INPUT: Dear colleague, I am looking for the recorded GI50 of the following compound: O=C(O)c1cc2ccc(Cl)cc2c(O)c1C1=CCCCC1
OUTPUT: 63.8 µM (inactive)

====

# System: RXF 393
# assay summary: NCI tumour cell line growth inhibition, 48 h
Calls of active or inactive are those of the source. Rule as the data show it: active = GI50 up to about 1.1 µM and inactive = higher.
Measured GI50, listed per entry.

Use the examples below as a reference point.
compound | GI50
CCOC(=O)c1c(Nc2ccccc2)sc2cccnc12 | 25.7 µM (inactive)
CC1(c2cc3c(cc2Br)OCO3)SCCCS1 | 18.3 µM (inactive)
COc1ccc(-c2nc(SCC(=O)N/N=C/c3ccc(O)c(OC)c3)[nH]c2-c2ccc(OC)cc2)cc1 | 18.6 µM (inactive)
CCOC(=O)C(NC(=O)CC)(Nc1ccc(S(=O)(=O)Nc2onc(C)c2C)cc1)C(F)(F)F (stereo not given) | > 100 µM (inactive)

INPUT: Consider the compound shown here: O=C(O)c1ccc(C2=Nc3cccc4cccc(c34)N2)cc1 What is its recorded GI50?
OUTPUT: > 100 µM (inactive)
